System: HeLa cells
test.details: Cell cycle assay in HeLa cells
Type: cell-based, human
applied.conditions: HeLa cells, 150 nM oligomeric compound, 24 hours, relative to untreated control (UTC = 100)
In the oligonucleotide strings, read from the 5' end, every base follows the letter of its sugar. An asterisk marks phosphorothioate; unmarked linkages are phosphodiester. Other units and linkages are bracketed, terminal groups are in braces. A string of capitals states the bases alone. e = 2'-O-(2-methoxyethyl) (MOE); [5mC] = 5-methylcytosine; d = 2'-deoxy (DNA)
property.measured: % cells in cell cycle phase G2/M (%)
Write the value in % as a bare number.

Example entries begin here.
327906 (antisense eT*e[5mC]*eA*eT*eA*eG*e[5mC]*e[5mC]*e[5mC]*eT*eG*eT*eA*e[5mC]*eA*eA*eT*eG*e[5mC]*eT*eG*e[5mC]*eT) [compound 327906] : 107
327911 (antisense eG*e[5mC]*eT*eA*e[5mC]*e[5mC]*eT*eG*e[5mC]*eA*e[5mC]*eT*eG*eT*eA*eA*eG*e[5mC]*eA*e[5mC]*eT*eT*eT*eT) [compound 327911] : 122
327892 (antisense eA*e[5mC]*eT*eT*eT*e[5mC]*eG*eG*eT*eT*eA*eT*e[5mC]*eT*eA*eG*e[5mC]*eT*eT*eT*eA) [compound 327892] : 103
328136 (eA*eA*e[5mC]*eT*eA*e[5mC]*eT*eT*e[5mC]*e[5mC]*eA*eG*eA*eG*e[5mC]*eA*eG*eG*eT*eG*eA; anti-miR) [compound 328136] : 88
327901 (antisense eT*eG*eA*eG*e[5mC]*eT*eA*e[5mC]*eA*eG*eT*eG*e[5mC]*eT*eT*e[5mC]*eA*eT*e[5mC]*eT*e[5mC]*eA) [compound 327901] : 110
328744 (antisense e[5mC]*eG*eG*eA*eT*d[5mC]*d[5mC]*dT*dG*dT*dT*dA*d[5mC]*d[5mC]*dT*e[5mC]*eA*e[5mC]*e[5mC]*eA) [compound 328744] : 167
328707 (eG*e[5mC]*eA*eA*e[5mC]*dA*dG*dG*d[5mC]*d[5mC]*dT*d[5mC]*dA*dA*dT*eA*eT*e[5mC]*eT*eT) [compound 328707] : 195
328780 (antisense eT*eG*eT*e[5mC]*eA*dT*dG*dG*dA*d[5mC]*dA*dG*dG*dA*dT*eG*eA*eA*eT*eA) [compound 328780] : 136
328111 (antisense eT*e[5mC]*e[5mC]*eG*eA*eG*eT*e[5mC]*eG*eG*eA*eG*eG*eA*eG*eG*eA*eG*eG*eA*eA) [compound 328111] : 99
328397 (antisense eT*eT*eG*eA*eT*d[5mC]*d[5mC]*dA*dT*dA*dT*dG*d[5mC]*dA*dA*e[5mC]*eA*eA*eG*eG) [compound 328397] : 142

Kindly review the next substance as well.
Q: Quick check: % cells in cell cycle phase G2/M of 328424 (antisense eA*eG*eG*eA*eA*dG*d[5mC]*dA*d[5mC]*dA*d[5mC]*dA*dT*dT*dA*eT*e[5mC]*eA*e[5mC]*eA) [compound 328424] ?
A: 112

---

Tested on: HeLa cells
test.details: Cell cycle assay in HeLa cells
Format: cell-based, human
applied.conditions: HeLa cells, 150 nM oligomeric compound, 24 hours, relative to untreated control (UTC = 100)
In the oligonucleotide strings, read from the 5' end, every base follows the letter of its sugar. An asterisk marks phosphorothioate; unmarked linkages are phosphodiester. Other units and linkages are bracketed, terminal groups are in braces. A string of capitals states the bases alone. e = 2'-O-(2-methoxyethyl) (MOE); [5mC] = 5-methylcytosine
The following substances are shown together with reported % cells aneuploid values.
Write the value in % as a bare number.

328136 (eA*eA*e[5mC]*eT*eA*e[5mC]*eT*eT*e[5mC]*e[5mC]*eA*eG*eA*eG*e[5mC]*eA*eG*eG*eT*eG*eA; anti-miR) [compound 328136] : 51

Q: Quick check: % cells aneuploid of 327896 (antisense eA*e[5mC]*eA*eG*eT*eT*e[5mC]*eT*eT*e[5mC]*eA*eA*e[5mC]*eT*eG*eG*e[5mC]*eA*eG*e[5mC]*eT*eT) [compound 327896] ?
A: 65

Q: Quick check: % cells aneuploid of 338756 (antisense TGCCCTGCTCAGAGCCCTAG; all 2'-MOE, all phosphorothioate, methylation of C not given here) [compound 338756] ?
A: 166

---

Tested on: PEPCK-c
test.details: PEPCK-c mRNA expression in HepG2 cells
Type: cell-based, human
applied.conditions: Experiment 3, basal (no insulin), HepG2 cells, 48 hours post-transfection
In the oligonucleotide strings, read from the 5' end, every base follows the letter of its sugar. An asterisk marks phosphorothioate; unmarked linkages are phosphodiester. Other units and linkages are bracketed, terminal groups are in braces. A string of capitals states the bases alone. e = 2'-O-(2-methoxyethyl) (MOE); [5mC] = 5-methylcytosine; d = 2'-deoxy (DNA)
The following substances are shown together with reported PEPCK-c (% UTC) values.
Write the value in % UTC as a bare number.

328779 (antisense eT*eG*eT*eT*eT*dG*dT*d[5mC]*dT*d[5mC]*d[5mC]*dA*dA*dG*dA*eA*eA*e[5mC]*eG*eT) [compound 328779] : 123
328765 (antisense eG*eA*e[5mC]*eA*eA*dA*d[5mC]*dT*d[5mC]*dA*dG*d[5mC]*dT*dA*dT*eA*eT*eT*eG*eT) [compound 328765] : 93
328677 (eT*e[5mC]*e[5mC]*eT*eG*dG*dA*dT*dG*dA*dT*dA*dT*d[5mC]*dT*eA*e[5mC]*e[5mC]*eT*e[5mC]; antisense) [compound 328677] : 145
328691 (e[5mC]*e[5mC]*e[5mC]*e[5mC]*eA*dT*d[5mC]*dT*dT*dA*dG*d[5mC]*dA*dT*d[5mC]*eT*eA*eA*eG*eG) [compound 328691] : 108
341813 (antisense AGACACGTGCACTGTAGA; all 2'-MOE, all phosphorothioate, methylation of C not given here) [compound 341813] : 121

Kindly review the next substance as well.
Q: Quick check: PEPCK-c (% UTC) of 328761 (antisense eG*e[5mC]*eA*eG*eG*d[5mC]*dT*dA*dA*dA*dA*dG*dA*dA*dA*eT*eA*eA*eG*e[5mC]) [compound 328761] ?
A: 48

---

The following substances are shown together with reported % cells in cell cycle phase: aneuploid values.
System: HeLa cells
test.details: Cell cycle assay in HeLa cells
Format: cell-based, human
applied.conditions: HeLa cells, 150 nM oligomeric compound, 48 hours after treatment; relative to untreated control (UTC=100)
In the oligonucleotide strings, read from the 5' end, every base follows the letter of its sugar. An asterisk marks phosphorothioate; unmarked linkages are phosphodiester. Other units and linkages are bracketed, terminal groups are in braces. A string of capitals states the bases alone. e = 2'-O-(2-methoxyethyl) (MOE); [5mC] = 5-methylcytosine
Write the value in % as a bare number.

327878 (antisense e[5mC]*eT*eA*eG*eT*eG*eG*eT*e[5mC]*e[5mC]*eT*eA*eA*eA*e[5mC]*eA*eT*eT*eT*e[5mC]*eA*e[5mC]) [compound 327878] : 92
327885 (antisense eA*e[5mC]*eT*eA*e[5mC]*e[5mC]*eT*eG*e[5mC]*eA*e[5mC]*eT*eG*eT*eA*eA*eG*e[5mC]*eA*e[5mC]*eT*eT*eT*eG) [compound 327885] : 76
328136 (eA*eA*e[5mC]*eT*eA*e[5mC]*eT*eT*e[5mC]*e[5mC]*eA*eG*eA*eG*e[5mC]*eA*eG*eG*eT*eG*eA; anti-miR) [compound 328136] : 85
327919 (antisense eG*eA*eA*eA*e[5mC]*e[5mC]*e[5mC]*eA*eG*e[5mC]*eA*eG*eA*e[5mC]*eA*eA*eT*eG*eT*eA*eG*e[5mC]*eT) [compound 327919] : 104

Kindly review the next substance as well.
Q: Quick check: % cells in cell cycle phase: aneuploid of 338637 (antisense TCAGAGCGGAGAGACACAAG; all 2'-MOE, all phosphorothioate, methylation of C not given here) [compound 338637] ?
A: 210

---

Test system: BJ cells
test.details: Cell cycle assay in BJ cells
Type: cell-based, human
applied.conditions: 200 nM, 48 hours, relative to untreated control
In the oligonucleotide strings, read from the 5' end, every base follows the letter of its sugar. An asterisk marks phosphorothioate; unmarked linkages are phosphodiester. Other units and linkages are bracketed, terminal groups are in braces. A string of capitals states the bases alone. e = 2'-O-(2-methoxyethyl) (MOE); [5mC] = 5-methylcytosine; d = 2'-deoxy (DNA)
The following substances are shown together with reported % cells in cell cycle phase S values.
Write the value in % as a bare number.

Example entries begin here.
328744 (antisense e[5mC]*eG*eG*eA*eT*d[5mC]*d[5mC]*dT*dG*dT*dT*dA*d[5mC]*d[5mC]*dT*e[5mC]*eA*e[5mC]*e[5mC]*eA) [compound 328744] : 111
25691 (antisense eG*e[5mC]*e[5mC]*eA*eA*dG*dG*d[5mC]*dG*dT*dG*dA*d[5mC]*dA*dT*eG*eA*eT*eA*eT) [compound 25691] : 116
345395 (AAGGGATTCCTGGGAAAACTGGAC; sugars from the 5' end e5 d10 e9, all phosphorothioate, methylation of C not given here) [compound 345395] : 97

Kindly review the next substance as well.
Q: Quick check: % cells in cell cycle phase S of 328759 (antisense eG*eA*eG*eG*eG*dA*dT*dT*dG*dT*dA*dT*dG*dA*dA*e[5mC]*eA*eT*e[5mC]*eT) [compound 328759] ?
A: 117
